Source listed as paper PMC12566971.

test system: Human gingival fibroblasts (HGF); test: MTT assay for cytotoxicity; assay type: cell-based; details: Homo sapiens, Fibroblast; converted to µM

| compound | IC50 |
| --- | --- |
| CC(C)=CCCC1(C)C(CC=C(C)C)CC2C(=O)C1(C(=O)C(C)C)C(=O)C(CC=C(C)C)=C2O (stereo not shown) | 38.4 µM |

* * *

system: Human embryonic kidney-293 (HEK-293); assay: MTT assay for cytotoxicity; type: cell-based; conditions: converted to µM
attribute_measured: IC50 (µM)

| smiles_data | assay_result |
| --- | --- |
| CC(C)=CCC[C@]1(C)[C@@H](CC=C(C)C)C[C@]2(C)C(=O)C(CC=C(C)C)=C(O)[C@@]1(C(=O)C(C)C)C2=O | 1.64 |
